Reference source for all entries: patent US10577404B2

# test: Cytotoxicity test (MTT method)
# Format: cell-based
# assaySetup: human, HEK293T cells, Survival rate of cells
# Text: Cytotoxicity test of the interferon-derived polypeptide on human HEK293T cells and grass carp CIK cells: The MTT method, also known as the MTT colorimetric method, is a method for measuring cell proliferation and cell survival rate. […] DMSO can dissolve Formazan in the cells, and through measuring its absorbance by using an enzyme-linked immunosorbent detector at a wavelength of 492 nm, the number of living cells can be reflected indirectly. […]
Ends that are not written are not given here.
assayEndpoint: viability at 24 h, 64 µM (%)
Quick note: give the figure in %, leave out the unit.

Which viability at 24 h, 64 µM is listed for SYEKKINRHFKILKKNLKKK [Interferon-derived polypeptide] ? 89

---

# test: Cytotoxicity test (MTT method)
# Type: cell-based
# assaySetup: CIK cells, grass carp CIK, final concentration 128 μM, read-out: Survival rate of cells
Ends that are not written are not given here.
assayEndpoint: viability at 24 h, 128 µM

Which viability at 24 h, 128 µM reading was recorded for the sequence SYEKKINRHFKILKKNLKKK [Interferon-derived polypeptide] ? > 80%

---

# test: Cytotoxicity test (MTT method)
# Type: cell-based
# assaySetup: human, HEK293T cells, Survival rate of cells
# From the text: Cytotoxicity test of the interferon-derived polypeptide on human HEK293T cells and grass carp CIK cells: The MTT method, also known as the MTT colorimetric method, is a method for measuring cell proliferation and cell survival rate. […] DMSO can dissolve Formazan in the cells, and through measuring its absorbance by using an enzyme-linked immunosorbent detector at a wavelength of 492 nm, the number of living cells can be reflected indirectly. […]
Ends that are not written are not given here.
assayEndpoint: viability at 24 h, 32 µM

Please give the measured viability at 24 h, 32 µM for this sequence: SYEKKINRHFKILKKNLKKK [Interferon-derived polypeptide] 93%

---

# test: Cytotoxicity test (MTT method)
# Type: cell-based
# assaySetup: CIK cells, grass carp CIK, final concentration 64 μM, read-out: Survival rate of cells
Ends that are not written are not given here.
assayEndpoint: viability at 24 h, 64 µM (%)
Return type: number; implicit unit %.

Look up viability at 24 h, 64 µM for this sequence: SYEKKINRHFKILKKNLKKK [Interferon-derived polypeptide] 87

---

# test: Cytotoxicity test (MTT method)
# Assay type: cell-based
# assaySetup: human, HEK293T cells, Survival rate of cells
Ends that are not written are not given here.
assayEndpoint: viability at 24 h, 8 µM (%)
Note: unit % is implicit; provide only the numeric part.

Query: viability at 24 h, 8 µM; subject: SYEKKINRHFKILKKNLKKK [Interferon-derived polypeptide] 98.3
